- System: CCRIS mutagenicity, Ames/micronucleus/aberration tests
- ASSAY_NAME: CCRIS mutagenicity studies
- CONDITIONS_USED: End Point: IN VITRO CHROMOSOMAL ABERRATIONS; Test System: CHO CELLS; Metabolic Activation: NONE
Calls of active or inactive are those of the source. The rule behind the calls is not given here.
// one of active, inactive, no free text

COMPOUND: Cc1cc(O)c2c(c1)C(=O)c1cccc(O)c1C2=O
TARGET_OF_ASSAY: CCRIS mutagenicity, Ames/micronucleus/aberration tests
DISCRETE_LABEL: inactive
--
COMPOUND: Nc1ccc(N)c2c1C(=O)c1c(N)ccc(N)c1C2=O
TARGET_OF_ASSAY: CCRIS mutagenicity, Ames/micronucleus/aberration tests
DISCRETE_LABEL: active
--
COMPOUND: O=C1CCCO1
TARGET_OF_ASSAY: CCRIS mutagenicity, Ames/micronucleus/aberration tests
DISCRETE_LABEL: inactive
--
COMPOUND: Nc1ccccc1C(=O)OC/C=C/c1ccccc1
TARGET_OF_ASSAY: CCRIS mutagenicity, Ames/micronucleus/aberration tests
DISCRETE_LABEL: inactive

Input line: Recorded test call requested for O=C1C=CC[C@H](/C=C/c2ccccc2)O1
Output line: active

Input line: Recorded test outcome, item NS(=O)(=O)c1cc2c(cc1Cl)NCNS2(=O)=O
Output line: inactive

Input line: Assay outcome for COP(=O)(OC)OC=C(Cl)Cl : what was it?
Output line: active

Input line: Hey, what did the test say about C[C@](N)(Cc1ccc(O)c(O)c1)C(=O)O ?
Output line: inactive

Input line: Tell me the recorded outcome of this test for COC(=O)[C@H]1[C@H]2C[C@@H]3c4[nH]c5cc(OC)ccc5c4CCN3C[C@H]2C[C@@H](OC(=O)c2cc(OC)c(OC)c(OC)c2)[C@@H]1OC .
Output line: inactive

Input line: Give the logged outcome of this assay for the following compound: CC1CCC(C(C)C)C(O)C1 (stereo not drawn)
Output line: active

Input line: Which outcome was entered for the compound CC(=O)Nc1ccc(N=Nc2cc(C)ccc2O)cc1 in this test?
Output line: inactive

Input line: Hi, sorry to bother you, what did the test record for C=C(C)[C@H]1CC=C(C)CC1 ?
Output line: inactive

Input line: Per the records of this test, what outcome belongs to ClCCOCCCl ?
Output line: inactive

The reported measurements were obtained from PubChem BioAssay AID1259407.
